Biological target: T1, HLA-DP402 (DPB1*0402) (human, UniProt P20036 29-222, limits assumed)
T1 construct: also called DP*0402
Assay: competition ELISA, tracer biotin-Oxy 271-287
So I've got a bunch of binders here, and I need their relative binding activity values.

Below, each entry is followed by its recorded relative binding activity result.
binder: LTLLALLALTSAVAK (synthetic 15-mer of the human midkine precursor; also called MDK3; peptide 9-23) [MDK 9-23]
property_name: relative binding activity
obs_value: 29 IC50 ratio to reference peptide
--
binder: AEWAWGPCTPSSKDC (also called MDK7) [MDK 38-52]
property_name: relative binding activity
obs_value: 239 IC50 ratio to reference peptide
--
binder: CKYKFENWGACDGGT (also called MDK13) [MDK 84-98]
property_name: relative binding activity
obs_value: 49 IC50 ratio to reference peptide
--
binder: MQHRGFLLLTLLALL (synthetic 15-mer of the human midkine precursor; also called peptide 1-15) [MDK 1-15]
property_name: relative binding activity
obs_value: 19 IC50 ratio to reference peptide
--
binder: RGFLLLTLLALLALT (synthetic 15-mer of the human midkine precursor; also called MDK2; peptide 4-18) [MDK 4-18]
property_name: relative binding activity
obs_value: 18 IC50 ratio to reference peptide

Record KEFGADCKYKFENWG (also called MDK12) [MDK 78-92] , field relative binding activity: 378 IC50 ratio to reference peptide
